Data origin: patent US20080160035A1

Target: T1, hIL-4R on cells (STAT6-transfected HEK293, TF1, TF1/A12) (human, UniProt P24394 26-825)
T1 sequence (looked up): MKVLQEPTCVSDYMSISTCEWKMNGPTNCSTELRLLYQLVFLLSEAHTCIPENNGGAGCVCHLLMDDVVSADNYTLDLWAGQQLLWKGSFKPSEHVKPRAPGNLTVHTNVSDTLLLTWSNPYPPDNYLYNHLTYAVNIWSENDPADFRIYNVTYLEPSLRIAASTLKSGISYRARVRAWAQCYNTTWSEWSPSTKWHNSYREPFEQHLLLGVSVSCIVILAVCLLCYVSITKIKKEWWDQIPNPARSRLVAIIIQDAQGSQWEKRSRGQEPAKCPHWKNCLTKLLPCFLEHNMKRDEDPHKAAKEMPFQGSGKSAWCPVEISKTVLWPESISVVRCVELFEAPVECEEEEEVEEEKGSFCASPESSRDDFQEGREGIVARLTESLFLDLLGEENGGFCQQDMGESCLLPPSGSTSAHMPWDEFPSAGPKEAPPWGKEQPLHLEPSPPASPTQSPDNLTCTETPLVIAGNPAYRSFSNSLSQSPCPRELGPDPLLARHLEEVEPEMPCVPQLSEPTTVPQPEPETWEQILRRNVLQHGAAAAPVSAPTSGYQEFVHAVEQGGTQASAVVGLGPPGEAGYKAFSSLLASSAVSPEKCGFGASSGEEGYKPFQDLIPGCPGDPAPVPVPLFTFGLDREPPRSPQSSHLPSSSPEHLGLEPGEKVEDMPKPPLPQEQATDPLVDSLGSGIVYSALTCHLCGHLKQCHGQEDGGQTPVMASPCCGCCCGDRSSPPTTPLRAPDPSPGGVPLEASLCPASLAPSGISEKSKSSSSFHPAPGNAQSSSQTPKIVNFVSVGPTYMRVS
Experiment: cell-based or functional assay
Measured metric: STAT6 Bioassay IC50 (HEK293 STAT6 luciferase, 40 pM hIL-13) (nM)
Numeric only. Scale: nM

>  <Binder>
VAB 11G8-1 (antibody, V domains shown, Apparently tested with mouse constant region (anti-mouse IgG capture/detection)) VH: QVQLVQSGAEVKKPGASVKVSCKASGYTFTNYGISWVRQAPGQGLEWMGWISVYNGHTNYAQKLQGRVTMTTDTSTSTAYMELRSLRSDDTAVYYCARGSGYDFDSWGQGTLVTVSS VL: AIQMTQSSSSLSASVGDRVTITCRASQAIRNALGWYQQKPGKAPKVLIYAASSLQSGIPSRFSGSGSGTDFTLTISSLQPEDFATYYCLQDYDYPYTFGQGTKLEIK

>  <Reading>
8.8

$$$$

Let's switch to this binder now.
Prompt: For VAK9C6-11 (antibody, V domains shown, Apparently tested with mouse constant region (anti-mouse IgG capture/detection)) VH: QVQLVESGGGVVQPGRSLRLSCAASGFTFSSYGMHWVRQAPGKGLEWVTVISYDGSIKYYVDSVKGRFTISRDNSKNTLFLQMNSLRVEDTAVYYCAKEGRKYGMDVWGQGTTVTVSS VL: DIQMTQSPSTLSASVGDRVTITCRASQIISSLLVWYQQKPGKAPKLLIYKASSLESGVPSRFSGSGSGTEFTLTISSLQPDDFATYYCQQYHSYMYTFGQGTKLEIK , what is its reported STAT6 Bioassay IC50 (HEK293 STAT6 luciferase, 40 pM hIL-13)?
Completion: 0.3
